Reported growth by item:
System: HCT-116 colon
ASSAY INFO: NCI-60 one-dose screen, 48 h (100 = growth as untreated, 0 = no growth, -100 = all killed)
ASSAY SETUP: 10 µM unless noted
Method: Growth inhibition of the HCT-116 human tumor cell line is measured as a screen for anti-cancer activity. Cells are grown in 96 well plates and exposed to the test compound for 48 hours. Compounds are tested at a single concentration, which is 10^-5 M for most compounds. The reported endpoint is percent growth (GI% or GIPRCNT), where numbers from 0 - 100% represent growth inhibition, and numbers from -100% - 0 represent cell death. For example, a value of 40 represents 60% growth inhibition. […]
About 83,000 compounds went through this panel and 20% of them were active in at least one assay; those are over-represented in the sample as a whole.
MEASUREMENT LABEL: growth (%)

{"MOLECULE": "O=C(O)c1ccccc1Nc1cccc(S(F)(F)(F)(F)F)c1", "TARGET OR SYSTEM": "HCT-116 colon", "UNIT SYMBOL": "%", "EXPERIMENTAL RESULT": 98.3}
{"MOLECULE": "O=C1OC2C(I)C3CC2C1C3c1ccccc1 (stereo not given)", "TARGET OR SYSTEM": "HCT-116 colon", "UNIT SYMBOL": "%", "EXPERIMENTAL RESULT": 96.8}
{"MOLECULE": "O=C1c2cc3c(cc2-c2c1c1cc(Cl)c(Cl)cc1c(=O)n2C[C@H](O)CO)OCO3", "TARGET OR SYSTEM": "HCT-116 colon", "UNIT SYMBOL": "%", "EXPERIMENTAL RESULT": -25.4}
{"MOLECULE": "Cc1cc(OCc2ccc(C(F)(F)F)cc2)c2c(c1)C(=O)C=C(NCCN1CCCC1)C2=O", "TARGET OR SYSTEM": "HCT-116 colon", "UNIT SYMBOL": "%", "EXPERIMENTAL RESULT": 19.6}
{"MOLECULE": "COc1ccc(C/C(C)=C(\\c2ccc(Cl)cc2)c2ccc(OCCN3CCCCCC3)cc2)cc1", "TARGET OR SYSTEM": "HCT-116 colon", "UNIT SYMBOL": "%", "EXPERIMENTAL RESULT": 56.5}
{"MOLECULE": "C=C1CC[C@@H]2[C@](C)(COC(C)=O)[C@H](OC(C)=O)CC[C@@]2(C)[C@@H]1CC(Nc1ccc(S(=O)(=O)Nc2ccc(Cl)nn2)cc1)C1=CCOC1=O (stereo not given in full)", "TARGET OR SYSTEM": "HCT-116 colon", "UNIT SYMBOL": "%", "EXPERIMENTAL RESULT": -34.1}
{"MOLECULE": "C/C(=C(/c1ccc(O)cc1)c1ccc(OCCN2CCCC2)cc1)c1ccccc1", "TARGET OR SYSTEM": "HCT-116 colon", "UNIT SYMBOL": "%", "EXPERIMENTAL RESULT": 41.2}
{"MOLECULE": "CCCCN(CCCC)Cc1c(C)[nH]c2cc(OC)ccc2c1=O", "TARGET OR SYSTEM": "HCT-116 colon", "UNIT SYMBOL": "%", "EXPERIMENTAL RESULT": 95.2}
{"MOLECULE": "CN(C)c1ccc(/C=C\\C2=[N+](C)c3ccccc3C2(C)C)cc1", "TARGET OR SYSTEM": "HCT-116 colon", "UNIT SYMBOL": "%", "EXPERIMENTAL RESULT": 7.97}
{"MOLECULE": "Cc1ccc2c(c1)n([O-])c1cc(Cl)ccc1[n+]2=O", "TARGET OR SYSTEM": "HCT-116 colon", "UNIT SYMBOL": "%", "EXPERIMENTAL RESULT": 84.2}
